B1: HDV Ribozyme (parent)
chain: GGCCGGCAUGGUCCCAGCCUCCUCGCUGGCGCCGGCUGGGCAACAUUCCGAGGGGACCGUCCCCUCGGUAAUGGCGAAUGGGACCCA

variants of: B1; test: self-cleavage, relative activity (ratio to wild type); higher = more cleavage; co-transcriptional
Outcome Measure: self-cleavage
# respond with the number and nothing more

Take a look at these entries with their results.
[
  {
    "Entry Sequence": "GGCCGGCAUGUUCCCAGCCUCCUCGCUGGCGCCGGCUGGGCAACAUUCCGAGGGGACCGCCCCCUCGGUAAUGGCGAAUGGGACCCA",
    "Observed Result": 0.342
  },
  {
    "Entry Sequence": "GGCCGGCAUGGUCCCAGCCUCCUCGCUGGCGCCGGCUGGGCACCAUUCCGAGGGGACCGUCCCCUCGGUAAUGGCGAAUGGGAGCCA",
    "Observed Result": 0.237
  },
  {
    "Entry Sequence": "GGCCGGCAUGGUCCCAGCCUCCUCGGUGGCGCCGGCUGGGCAACAUUCCGAGGGGAACGUCCCCUCGGUAAUGGCGAAUGGGACCCA",
    "Observed Result": 0.812
  }
]

Query (variant): GGCCGGCAUGGUCCCCGCCGCCUCGCUGGCGCCGGCUGGGCAACAUUCCGAGGGGACCGUCCCCUCGGUAAUGGCGAAUGGGACCCA ; field requested: self-cleavage
0

Now give it for GGCCGGCAUGGUCCCAGCCUCCUCUCAGGCGCCGGCUGGGCAACAUUCCGAGGGGACCGUCCCCUCGGUAAUGGCGAAUGGGACCCA too.
0.135

Also GGCCGGCAUGGUCCCAGCCUCCUCGCUGGCGCCGGCUGGGCAACAUUCCGAGGGGACCGUCCGCUCGGUAAUGGCGAAUGGGACCAA ?
0.95

Can you handle GGCCGCCAUGGUCCCAGCCUCCUAGCUGGCGCCGGCUGGGCAACAUUCCGAGGGGACCGUCCCCUCGGUAAUGGCGAAUGGGACCCA next?
0.138
